- ASSAY TEXT: ATG_TCF_b_cat_CIS: Attagene CIS-FACTORIAL HepG2 Assay for human T-Cell-Factor with beta-catenin (TCF/b-cat) (AID 2282965)
- STUDY CONDITIONS: HepG2 TCF/beta-catenin cis-reporter transcription, actives raise or lower the signal
Calls of active or inactive are those of the source. The calls were made as follows: active = hit-call score of the fitted dose curve at least 0.9, where 1 is the maximum; inactive = score below 0.9.
Outcomes: yes (active), no (inactive)

STRUCTURE NOTATION: CC(C)(O)c1ccc(CNC(=O)c2cccnc2Oc2ccc3nonc3c2)cc1
CLASS: no
--
STRUCTURE NOTATION: O=C(O)c1ccccc1-n1cc(C(=O)O)c(=O)c2cc(Nc3c(F)cc(F)cc3Cl)c(Cl)cc21
CLASS: no
--
STRUCTURE NOTATION: O=c1[nH]sc2ccccc12
CLASS: yes
--
STRUCTURE NOTATION: CCOC(=O)O[C@H](C)OC(=O)c1ccc2c(c1)cc(C(=O)NC1CCN(C(C)C)CC1)n2Cc1cc(-c2ccc(Cl)s2)on1
CLASS: no
--
STRUCTURE NOTATION: Cc1occc1C(=O)Nc1ccc(C(=O)N2CCC(F)(F)/C(=C\C(=O)N3CCC(N4CCCCC4)CC3)c3ccccc32)cc1
CLASS: yes
--
STRUCTURE NOTATION: CC(=O)N1CCN(c2ccc(OC[C@H]3CO[C@](Cn4ccnc4)(c4ccc(Cl)cc4Cl)O3)cc2)CC1
CLASS: yes
--
STRUCTURE NOTATION: Clc1ccccc1C(c1ccccc1)(c1ccccc1)n1ccnc1
CLASS: no
--
STRUCTURE NOTATION: Cc1ccc(C(C)C)cc1
CLASS: no
--
STRUCTURE NOTATION: CCCCCCCCOc1ccc(C(=O)c2ccccc2)c(O)c1
CLASS: no
--
STRUCTURE NOTATION: O=C1O[C@H]([C@@H](O)CO)C(O)=C1O
CLASS: no

---

- Read-out: Nuclear factor NF-kappa-B p105 subunit (Homo sapiens) (UniProt P19838)
- Sequence (P19838 whole entry, looked up): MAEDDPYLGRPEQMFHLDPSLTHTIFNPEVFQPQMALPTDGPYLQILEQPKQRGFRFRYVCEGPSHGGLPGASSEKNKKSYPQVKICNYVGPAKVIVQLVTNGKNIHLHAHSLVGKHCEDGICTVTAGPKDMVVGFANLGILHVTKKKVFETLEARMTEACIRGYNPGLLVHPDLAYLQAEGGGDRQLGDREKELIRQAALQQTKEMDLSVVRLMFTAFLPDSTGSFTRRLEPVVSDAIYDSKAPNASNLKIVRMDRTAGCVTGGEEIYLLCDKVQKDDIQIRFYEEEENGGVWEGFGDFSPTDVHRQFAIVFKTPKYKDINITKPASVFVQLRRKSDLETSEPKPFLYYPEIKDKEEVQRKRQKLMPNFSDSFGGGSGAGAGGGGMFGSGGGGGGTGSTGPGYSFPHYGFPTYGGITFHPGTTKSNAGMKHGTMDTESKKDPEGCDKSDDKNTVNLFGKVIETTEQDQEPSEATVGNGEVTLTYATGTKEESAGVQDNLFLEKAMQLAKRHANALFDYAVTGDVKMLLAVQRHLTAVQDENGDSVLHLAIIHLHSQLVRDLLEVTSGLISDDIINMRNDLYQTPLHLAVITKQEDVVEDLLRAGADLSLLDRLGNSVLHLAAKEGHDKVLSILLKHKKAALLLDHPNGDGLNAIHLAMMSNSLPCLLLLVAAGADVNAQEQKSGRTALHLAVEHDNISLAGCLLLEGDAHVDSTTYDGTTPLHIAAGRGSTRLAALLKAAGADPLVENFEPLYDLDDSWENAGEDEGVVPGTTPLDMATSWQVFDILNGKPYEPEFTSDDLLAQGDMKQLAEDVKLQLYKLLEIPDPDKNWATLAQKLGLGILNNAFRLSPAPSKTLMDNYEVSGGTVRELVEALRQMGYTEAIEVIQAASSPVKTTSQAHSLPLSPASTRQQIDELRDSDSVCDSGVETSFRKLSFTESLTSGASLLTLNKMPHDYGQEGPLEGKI
- ASSAY TEXT: LTEA_HepaRG_NFKB1: Life Technologies and Expression Analysis (LTEA) Assay for Nuclear Factor Kappa B Subunit 1 (NFKB1) using HepaRG (AID 2283521)
- STUDY CONDITIONS: mRNA level, 48 h; actives raise or lower the signal
The source made the active and inactive calls. Rule for the calls: active = hit-call score of the fitted dose curve at least 0.9, where 1 is the maximum; inactive = score below 0.9.
Classes used: class 1 (active), class 0 (inactive)

STRUCTURE NOTATION: Cc1cn([C@H]2C[C@H](N=[N+]=[N-])[C@@H](CO)O2)c(=O)[nH]c1=O
CLASS: class 0
//
STRUCTURE NOTATION: O=C(O)c1ccccc1-n1cc(C(=O)O)c(=O)c2cc(Nc3c(F)cc(F)cc3Cl)c(Cl)cc21
CLASS: class 0
//
STRUCTURE NOTATION: NCc1cccc(C2CCN(C(=O)c3ccc(C#Cc4ccccc4F)o3)CC2)c1
CLASS: class 0
//
STRUCTURE NOTATION: c1ccc2n[nH]nc2c1
CLASS: class 0
//
STRUCTURE NOTATION: CCCCCCCCOc1ccc(C(=O)c2ccccc2)c(O)c1
CLASS: class 0
//
STRUCTURE NOTATION: CCCCOC(=O)CC(CC(=O)OCCCC)(OC(C)=O)C(=O)OCCCC
CLASS: class 0
//
STRUCTURE NOTATION: O=C(O)Cc1cc(I)c(Oc2ccc(O)c(I)c2)c(I)c1
CLASS: class 1
//
STRUCTURE NOTATION: O=c1c(-c2ccc(O)cc2)coc2cc(O)cc(O)c12
CLASS: class 0
//
STRUCTURE NOTATION: O=CCCCC=O
CLASS: class 0
//
STRUCTURE NOTATION: CC(C)(c1cc(Br)c(O)c(Br)c1)c1cc(Br)c(O)c(Br)c1
CLASS: class 0
//
STRUCTURE NOTATION: Clc1cc(Cl)c2c(c1)N=C1CCCCCN1C2
CLASS: class 0
//
STRUCTURE NOTATION: O=C(Nc1ccc(Cl)cc1)Nc1ccc(Cl)c(Cl)c1
CLASS: class 1
